Data origin, for the record: patent US20240067660A1

pKi values by entry
- measurement target: Myeloid Cell Leukemia 1(Mcl-1) (Homo sapiens (Human))
- Sequence (Q07820 whole entry): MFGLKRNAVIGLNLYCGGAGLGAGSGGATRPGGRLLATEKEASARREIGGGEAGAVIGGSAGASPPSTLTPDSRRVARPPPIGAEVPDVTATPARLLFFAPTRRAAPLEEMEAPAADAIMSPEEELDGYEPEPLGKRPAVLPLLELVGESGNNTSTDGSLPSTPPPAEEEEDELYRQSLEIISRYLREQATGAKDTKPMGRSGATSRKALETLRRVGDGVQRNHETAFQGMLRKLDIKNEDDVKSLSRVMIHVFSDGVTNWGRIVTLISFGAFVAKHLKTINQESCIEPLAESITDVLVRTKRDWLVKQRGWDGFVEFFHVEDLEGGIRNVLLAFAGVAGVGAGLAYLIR
- protocol text: Terbium labeled Mcl-1 HTRF binding assay with Cy5-labeled BIM BH3 peptide
- experimental parameters: obtained after recalibration of the equipment; averaged values over several runs
pKi: −log10 of the molar value.
measured attribute: pKi

• C[C@@H]1[C@@H](C)C/C=C(\F)C(CO)(CO)N2CC[C@H]2CN2C[C@@]3(CCCc4cc(Cl)ccc43)COc3ccc(cc32)C(=O)NS1(=O)=O [Compound 36] = 9.64
• C[C@@H]1[C@@H](C)C/C=C(\F)[C@H](COc2ccccn2)N2CC[C@H]2CN2C[C@@]3(CCCc4cc(Cl)ccc43)COc3ccc(cc32)C(=O)NS1(=O)=O [Compound 11] = 8.67
• CC(C)COC[C@H]1/C(F)=C/C[C@H](C)[C@@H](C)S(=O)(=O)NC(=O)c2ccc3c(c2)N(C[C@@H]2CCN21)C[C@@]1(CCCc2cc(Cl)ccc21)CO3 [Compound 15] = 8.63
• C[C@@H]1[C@@H](C)C/C=C(\F)[C@H](COCC(=O)N2CCOCC2)N2CC[C@H]2CN2C[C@@]3(CCCc4cc(Cl)ccc43)COc3ccc(cc32)C(=O)NS1(=O)=O [Compound 18] = 9.62
• COCC1/C=C/C[C@H](C)[C@@H](C)S(=O)(=O)NC(=O)c2ccc3c(c2)N(C[C@@H]2CCCN12)C[C@@]1(CCCc2cc(Cl)ccc21)CO3 (single isomer, unassigned) [Compound 8] = 8.58
